Reference source: patent US10077261B2

measurementTarget: hFASN enzyme (full length) (Homo sapiens, UniProt P49327)
Construct: 10 μL hFASN enzyme (full length, 300 ng, purified in house); made in house
Sequence (P49327 whole entry): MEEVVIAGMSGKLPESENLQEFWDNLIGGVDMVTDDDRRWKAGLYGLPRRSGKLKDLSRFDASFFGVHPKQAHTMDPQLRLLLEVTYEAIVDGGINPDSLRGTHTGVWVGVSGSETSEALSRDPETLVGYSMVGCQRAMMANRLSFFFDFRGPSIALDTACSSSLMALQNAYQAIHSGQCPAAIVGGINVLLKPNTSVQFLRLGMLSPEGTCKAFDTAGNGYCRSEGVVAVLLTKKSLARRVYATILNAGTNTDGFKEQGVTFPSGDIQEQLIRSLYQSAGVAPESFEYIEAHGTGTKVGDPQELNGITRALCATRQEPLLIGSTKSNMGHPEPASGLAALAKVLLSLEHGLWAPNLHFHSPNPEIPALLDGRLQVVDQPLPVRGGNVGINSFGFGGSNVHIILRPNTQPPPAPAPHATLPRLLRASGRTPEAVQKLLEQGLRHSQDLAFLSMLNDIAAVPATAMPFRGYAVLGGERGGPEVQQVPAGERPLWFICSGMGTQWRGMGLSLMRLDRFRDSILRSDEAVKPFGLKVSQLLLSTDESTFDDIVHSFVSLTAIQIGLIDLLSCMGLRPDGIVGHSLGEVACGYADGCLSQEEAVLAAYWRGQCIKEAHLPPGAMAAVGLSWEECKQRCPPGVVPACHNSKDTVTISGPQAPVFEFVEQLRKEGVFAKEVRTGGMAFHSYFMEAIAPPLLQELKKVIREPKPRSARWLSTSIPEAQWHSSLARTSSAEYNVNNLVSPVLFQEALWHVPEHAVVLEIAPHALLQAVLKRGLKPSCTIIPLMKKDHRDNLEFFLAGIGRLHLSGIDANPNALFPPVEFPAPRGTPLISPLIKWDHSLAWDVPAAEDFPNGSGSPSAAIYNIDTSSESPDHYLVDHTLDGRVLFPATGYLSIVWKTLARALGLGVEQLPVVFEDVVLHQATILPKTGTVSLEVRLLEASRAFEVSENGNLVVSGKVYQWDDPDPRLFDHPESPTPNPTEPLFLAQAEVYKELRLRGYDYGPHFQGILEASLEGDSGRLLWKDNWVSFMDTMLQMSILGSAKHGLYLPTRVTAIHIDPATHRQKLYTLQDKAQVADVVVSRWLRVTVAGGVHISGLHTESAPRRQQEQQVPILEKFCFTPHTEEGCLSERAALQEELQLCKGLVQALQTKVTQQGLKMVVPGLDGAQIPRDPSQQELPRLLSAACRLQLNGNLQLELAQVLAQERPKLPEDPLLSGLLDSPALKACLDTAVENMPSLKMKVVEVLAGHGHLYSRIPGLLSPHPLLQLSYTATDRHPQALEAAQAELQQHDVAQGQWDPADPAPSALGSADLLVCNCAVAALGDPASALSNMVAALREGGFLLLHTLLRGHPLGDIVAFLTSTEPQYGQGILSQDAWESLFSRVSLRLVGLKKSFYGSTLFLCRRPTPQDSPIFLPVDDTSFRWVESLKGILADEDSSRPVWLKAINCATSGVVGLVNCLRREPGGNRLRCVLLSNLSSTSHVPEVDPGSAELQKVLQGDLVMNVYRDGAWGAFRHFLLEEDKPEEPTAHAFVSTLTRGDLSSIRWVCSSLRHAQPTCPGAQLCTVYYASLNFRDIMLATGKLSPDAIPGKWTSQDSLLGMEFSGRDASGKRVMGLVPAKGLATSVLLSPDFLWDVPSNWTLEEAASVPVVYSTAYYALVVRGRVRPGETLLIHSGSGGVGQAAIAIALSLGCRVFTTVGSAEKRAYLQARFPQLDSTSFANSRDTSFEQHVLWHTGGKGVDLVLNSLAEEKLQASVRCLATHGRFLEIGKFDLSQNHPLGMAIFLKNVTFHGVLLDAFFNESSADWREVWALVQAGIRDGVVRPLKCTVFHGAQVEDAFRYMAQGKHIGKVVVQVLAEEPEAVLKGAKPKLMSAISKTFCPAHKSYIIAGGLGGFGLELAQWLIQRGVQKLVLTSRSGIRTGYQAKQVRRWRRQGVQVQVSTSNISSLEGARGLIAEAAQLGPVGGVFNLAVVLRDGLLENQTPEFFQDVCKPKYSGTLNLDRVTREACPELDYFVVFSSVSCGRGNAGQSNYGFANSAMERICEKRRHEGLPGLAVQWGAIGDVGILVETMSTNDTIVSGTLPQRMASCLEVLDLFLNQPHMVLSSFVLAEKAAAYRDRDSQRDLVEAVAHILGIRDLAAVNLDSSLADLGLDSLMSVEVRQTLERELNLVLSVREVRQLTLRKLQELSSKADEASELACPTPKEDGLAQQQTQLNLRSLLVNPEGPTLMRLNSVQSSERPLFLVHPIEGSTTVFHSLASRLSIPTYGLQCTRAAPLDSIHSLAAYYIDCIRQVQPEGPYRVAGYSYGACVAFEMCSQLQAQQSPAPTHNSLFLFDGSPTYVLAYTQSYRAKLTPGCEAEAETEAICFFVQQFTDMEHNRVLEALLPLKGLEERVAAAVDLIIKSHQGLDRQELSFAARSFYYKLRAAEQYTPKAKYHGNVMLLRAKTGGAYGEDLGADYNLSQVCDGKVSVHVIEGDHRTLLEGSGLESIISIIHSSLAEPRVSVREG
method: Fatty Acid Synthase (FASN) inhibition scintillation proximity assay
Assay type: biochemical
testConditions: read-out: Human FASN pIC50 (converted)
Description: In this assay, inhibition of FASN activity is measured using ^3H-acetyl-CoA and malonyl-CoA as substrates. ^3H-Acetyl CoA is converted to ^3H-palmitate through a series of reactions by the FASN protein, which contains 7 functional domains and carries out 7 enzymatic reactions to ultimately produce ^3H-palmitate. The assay principle is based upon the fact that ^3H-acetyl-CoA is hydrophilic and the end product, ^3H-palmitate is hydrophobic. […]
assayMetric: IC50 (nM)
Response body: numeric value in nM, unit text excluded.

Request: Give the measured IC50 of Cn1ncc2cc(-c3ccc(C4=NC5(CCN(CCO)CC5)C(=O)N4C[C@@H]4CCN(C(=O)C5CC5)C4)cc3)ccc21 .
Result: 490

Request: Give the measured IC50 of COc1ccc2cc(-c3ccc(C4=NC5(CC5)C(=O)N4C[C@@H]4CCN(C(=O)C5(O)CC5)C4)cc3)ccc2c1 .
Result: 57.5

----------
Exercise: for every item that follows, state its recorded IC50.
Tested on: LNCaP-Vancouver prostate cells
method: In vitro LNCaP Vancouver prostate cell proliferation assay in lipid reduced medium
Assay type: cell-based
testConditions: read-out: pIC50 LNCaP_Vancouver prostate cell (converted)
Response body: numeric value in nM, unit text excluded.

Request: Give the measured IC50 of N#Cc1ccc2nc(-c3ccc(C4=NC5(CC5)C(=O)N4CC4CN(C(=O)C5CC5)C4)c(F)c3)sc2c1 .
Result: 288

Request: Give the measured IC50 of Cc1cc2cc(-c3ccc(C4=NC5(CC5)C(=O)N4C[C@@H]4CCN(C(=O)C5CC5)C4)c(C)c3)ccc2[nH]1 .
Result: 257

Request: Give the measured IC50 of O=C(C1CC1)N1CC(CN2C(=O)C3(CCN(C(=O)C(F)(F)F)CC3)N=C2c2ccc(-c3ccc4[nH]ccc4c3)cc2)C1 .
Result: 8910

Request: Give the measured IC50 of COc1ccc2cc(-c3ccc(C4=NC5(CC5)C(=O)N4C[C@@H]4CCN(C(=O)C5(O)CC5)C4)cc3)ccc2c1 .
Result: 21.4

Request: Give the measured IC50 of O=C(C1CC1)N1CC[C@@H](CN2C(=O)C3(CC3)N=C2c2ccc(-c3ccc4cnc(Cl)cc4c3)cc2)C1 .
Result: 3800

Request: Give the measured IC50 of Cc1cc2cc(-c3ccc(C4=NC5(CC5)C(=O)N4CC4CN(C(=O)C5CC5)C4)cc3)ccc2s1 .
Result: 2040

Request: Give the measured IC50 of COc1ccc2ccc(-c3ccc(C4=NC5(CC5)C(=O)N4CC4CN(C(=O)C5CC5)C4)c(F)c3)cc2c1 .
Result: 3470

Request: Give the measured IC50 of O=C(C1CC1)N1CC[C@@H](CN2C(=O)C3(CCOC3)N=C2c2ccc(-c3ccc4occc4c3)cc2)C1 (some centres unmarked) .
Result: 3800

Request: Give the measured IC50 of O=C(C1CC1)N1CC[C@@H](CN2C(=O)C3(CC3)N=C2c2ccc(-c3nc4ccccc4o3)cc2F)C1 .
Result: 138

Request: Give the measured IC50 of O=C(C1CC1)N1CC(CN2C(=O)C3(CC3)N=C2c2ccc(-c3ccc(-c4cnn(C5CC5)c4)cc3)cc2F)C1 .
Result: 53.7

Request: Give the measured IC50 of O=C(C1CC1)N1CC[C@@H](CN2C(=O)C3(CC3)N=C2c2ccc(-c3ccc4[nH]ccc4c3)cn2)C1 .
Result: 525

Request: Give the measured IC50 of Cc1cc(C2=NC3(CC3)C(=O)N2C[C@@H]2CCN(C(=O)C3CC3)C2)ccc1-c1cccc2[nH]ncc12 .
Result: 1170

Request: Give the measured IC50 of O=C(C1CC1)N1CC(CN2C(=O)C3(CC3)N=C2c2ccc(-c3ccc4cccnc4c3)cc2F)C1 .
Result: 43.7

Request: Give the measured IC50 of O=C(C1CC1)N1CC(CN2C(=O)C3(CC3)N=C2c2ccc(-c3ccc4occc4c3)cc2)C1 .
Result: 912

----------
Tested on: LNCaP-Vancouver prostate cells
method: In vitro LNCaP Vancouver prostate cell proliferation assay in lipid reduced medium
Type: cell-based
testConditions: read-out: pIC50 LNCaP_Vancouver prostate cell (converted)
assayMetric: IC50 (nM)
Response body: numeric value in nM, unit text excluded.

Request: Give the measured IC50 of COCCN1CCC2(CC1)N=C(c1ccc(-c3ccc4[nH]ncc4c3)cc1)N(C[C@@H]1CCN(C(=O)C3CC3)C1)C2=O .
Result: 3020

Request: Give the measured IC50 of O=C(C1CC1)N1CC[C@@H](CN2C(=O)C3(CC3)N=C2c2ccc(-c3ccc4cc(F)ccc4c3)cc2F)C1 .
Result: 447

Request: Give the measured IC50 of O=C([C@H]1CCCO1)N1CC(CN2C(=O)C3(CCOCC3)N=C2c2ccc(-c3ccc4cccnc4c3)cc2)C1 .
Result: 3390

Request: Give the measured IC50 of O=C(C1CC1)N1CC[C@@H](CN2C(=O)C3(CC3)N=C2c2ccc(-c3ccc4c(c3)CCO4)cc2)C1 .
Result: 2340

Request: Give the measured IC50 of O=C(C1CC1)N1CC[C@@H](CN2C(=O)C3(CC3)N=C2c2ccc(-c3ccc4cc[nH]c4c3)c(F)c2)C1 .
Result: 646

Request: Give the measured IC50 of COc1ccc2cc(-c3ccc(C4=NC5(CC5)C(=O)N4CC4CN(C(=O)C5CC5)C4)c(F)c3)ccc2c1 .
Result: 57.5

Request: Give the measured IC50 of Cc1cc(-c2ccc3cc(C#N)ccc3c2)ccc1C1=NC2(CC2)C(=O)N1CC1CN(C(=O)C2(C)CC2)C1 .
Result: 28.2

Request: Give the measured IC50 of Cc1cc(-c2cccc3[nH]ncc23)ccc1C1=NC2(CC2)C(=O)N1CC1CN(C(=O)C2CC2)C1 .
Result: 1260

Request: Give the measured IC50 of O=C(N1CC(CN2C(=O)C3(CC3)N=C2c2ccc(-c3ccc4ccc(F)cc4c3)cc2F)C1)C1(O)CC1 .
Result: 832

Request: Give the measured IC50 of O=C(C1CC1)N1CC(CN2C(=O)C3(CC3)N=C2c2ccc(-c3cccc(SC4CC4)c3)cc2F)C1 .
Result: 3470

Request: Give the measured IC50 of O=C(C1CC1)N1CC[C@@H](CN2C(=O)C3(CC3)N=C2c2ccc(-c3ccc4[nH]cc(CCO)c4c3)cc2)C1 .
Result: 178

Request: Give the measured IC50 of CS(=O)(=O)N1CCC2(CC1)N=C(c1ccc(-c3ccc4[nH]ccc4c3)cc1)N(C[C@@H]1CCN(C(=O)C3CC3)C1)C2=O .
Result: 851

Request: Give the measured IC50 of Cc1cc2cc(-c3ccc(C4=NC5(CC5)C(=O)N4CC4CN(C(=O)C5CC5)C4)c(F)c3)ccc2s1 .
Result: 1100

----------
assayMetric: pIC50
Lab note: report pIC50 as minus log10 of the concentration in molar units, number only.

Request: Form entry - test system: Fatty Acid Synthase Keto-reductase Domain (FASN KR) (Homo sapiens, UniProt P49327); read-out: pIC50; compound: Cc1cc(-c2ccc3sc(C)c(C)c3c2)ccc1C1=NC2(CC2)C(=O)N1C[C@@H]1CCN(C(=O)C2CC2)C1
Sequence (P49327 whole entry, the tested form may be a part): as the sequence (P49327 whole entry) above
Result: 7.03

Request: Form entry - test system: Fatty Acid Synthase Keto-reductase Domain (FASN KR) (Homo sapiens, UniProt P49327); read-out: pIC50; compound: Cc1cc2cc(-c3ccc(C4=NC5(CC5)C(=O)N4C[C@@H]4CCN(C(=O)C5CC5)C4)c(C)c3)ccc2s1
Result: 6.96

Request: Form entry - test system: Fatty Acid Synthase Keto-reductase Domain (FASN KR) (Homo sapiens, UniProt P49327); read-out: pIC50; compound: O=C(C1CC1)N1CC[C@@H](CN2C(=O)C3(CC3)N=C2c2ccc(-c3ccc4cccc(F)c4c3)cc2)C1
Result: 7.28

Request: Form entry - test system: Fatty Acid Synthase Keto-reductase Domain (FASN KR) (Homo sapiens, UniProt P49327); read-out: pIC50; compound: N#Cc1ccc(-c2ccc(C3=NC4(CC4)C(=O)N3CC3CN(C(=O)C4CC4)C3)cc2)cc1
Result: 6.07

----------
measurementTarget: hFASN enzyme (full length) (Homo sapiens)
Construct: 10 μL hFASN enzyme (full length, 300 ng, purified in house); made in house
method: Fatty Acid Synthase (FASN) inhibition scintillation proximity assay
Format: biochemical
testConditions: read-out: Human FASN % inhibition @ 10 μM, 10 μM test compound
Exercise: for every item that follows, state its recorded inhibition at 10 µM.
Response body: numeric value in %, unit text excluded.

Request: Form entry - test system: hFASN enzyme (full length) (Homo sapiens); read-out: inhibition at 10 µM; molecule: Cc1cc(C2=NC3(CC3)C(=O)N2C[C@@H]2CCN(C(=O)C3CC3)C2)ccc1-c1ccc2cc[nH]c2c1 [compound 239]
Result: 96

Request: Form entry - test system: hFASN enzyme (full length) (Homo sapiens); read-out: inhibition at 10 µM; molecule: Cc1nnc(-c2ccc(-c3ccc(C4=NC5(CCCC5)C(=O)N4C[C@@H]4CCN(C(=O)C5CC5)C4)c(C)c3)cc2)o1 [compound 882]
Result: 107

Request: Form entry - test system: hFASN enzyme (full length) (Homo sapiens); read-out: inhibition at 10 µM; molecule: O=C(C1CC1)N1CC[C@@H](CN2C(=O)C3(CC3)N=C2c2ccc(-c3n[nH]c4ccccc34)cc2F)C1 [compound 529]
Result: 96

Request: Form entry - test system: hFASN enzyme (full length) (Homo sapiens); read-out: inhibition at 10 µM; molecule: CC(C)n1ncc2cc(-c3ccc(C4=NC5(CC5)C(=O)N4C[C@@H]4CCN(C(=O)C5CC5)C4)cc3)ccc21 [compound 454]
Result: 53

Request: Form entry - test system: hFASN enzyme (full length) (Homo sapiens); read-out: inhibition at 10 µM; molecule: O=C(C1CC1)N1CC[C@@H](CN2C(=O)C3(CC3)N=C2c2ccc(-c3ccc4c(c3)CCO4)cc2)C1 [compound 462]
Result: 98

Request: Form entry - test system: hFASN enzyme (full length) (Homo sapiens); read-out: inhibition at 10 µM; molecule: O=C(C1CC1)N1CC(CN2C(=O)C3(CC3)N=C2c2ccc(-c3nc4ccc(Cl)cc4s3)cc2F)C1 [compound 274]
Result: 101

Request: Form entry - test system: hFASN enzyme (full length) (Homo sapiens); read-out: inhibition at 10 µM; molecule: O=C(C1CC1)N1CC(CN2C(=O)C3(CC3)N=C2c2ccc(-c3ccc4c(cnn4C4CC4)c3)cc2F)C1 [compound 522]
Result: 79
